biological target: IGF-1R (Homo sapiens); construct: purchased Upstate Co. 14-465; assay: IGF-1R inhibitory activity (kinase reaction, time-resolved fluoroimmunoassay); format: biochemical; details: IGF-1R active recombinant enzyme, test compound 10 μmol/L
Sequence (P08069 959-1367 limits assumed): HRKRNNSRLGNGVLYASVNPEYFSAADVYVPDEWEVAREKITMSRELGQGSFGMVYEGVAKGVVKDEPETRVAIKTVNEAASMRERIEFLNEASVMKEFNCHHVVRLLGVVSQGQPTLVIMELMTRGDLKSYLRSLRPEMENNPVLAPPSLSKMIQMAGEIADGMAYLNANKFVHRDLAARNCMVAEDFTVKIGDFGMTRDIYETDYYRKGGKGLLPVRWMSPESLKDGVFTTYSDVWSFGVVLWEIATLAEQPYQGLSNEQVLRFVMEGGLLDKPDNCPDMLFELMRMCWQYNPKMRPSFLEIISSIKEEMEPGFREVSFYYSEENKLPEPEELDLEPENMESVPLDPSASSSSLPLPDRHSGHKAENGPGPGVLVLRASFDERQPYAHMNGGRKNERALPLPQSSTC
Counter-ions that a name gives are not always drawn.
Quantity Measured: inhibition at 10 µM (%)

INSERT INTO assay_data (compound, quantity_measured, data_value) VALUES
  ('Cc1ccsc1C(=O)Nc1cc(C(=O)N2CCN(C(=O)[C@@H]3CCCN3)CC2)ccc1/C=C/c1n[nH]c2ccccc12', 'inhibition at 10 µM', 99.7),
  ('O=C(Nc1ccccc1/C=C/c1n[nH]c2ccccc12)c1ccno1', 'inhibition at 10 µM', 99.1),
  ('Cc1ccccc1C(=O)Nc1ccccc1/C=C/c1n[nH]c2ccccc12', 'inhibition at 10 µM', 97.6),
  ('O=C1c2cccc(F)c2C(=O)N1c1ccccc1/C=C/c1n[nH]c2ccccc12', 'inhibition at 10 µM', 99.4),
  ('Nc1ccc2c(c1)C(=O)N(c1cc3c(cc1/C=C/c1n[nH]c4ccccc14)OCO3)C2=O', 'inhibition at 10 µM', 99.8),
  ('Cc1oncc1C(=O)Nc1ccccc1/C=C/c1n[nH]c2ccccc12', 'inhibition at 10 µM', 82.7),
  ('COc1c(OCCCN2CC[C@@H](N)C2)ccc(/C=C/c2n[nH]c3ccccc23)c1NC(=O)c1sccc1C', 'inhibition at 10 µM', 114),
  ('O=C(Nc1ccc(C(=O)Nc2ccccc2/C=C/c2n[nH]c3ccccc23)s1)c1cccs1', 'inhibition at 10 µM', 94.5),
  ('Cc1ccsc1C(=O)Nc1cc(CNC2CCNCC2)ccc1/C=C/c1n[nH]c2ccccc12', 'inhibition at 10 µM', 102),
  ('Nc1ccn(C(=O)c2ccccc2/C=C/c2n[nH]c3ccccc23)n1', 'inhibition at 10 µM', 99.3),
  ('O=C(O)c1csc(Nc2ccccc2/C=C/c2n[nH]c3ccccc23)n1', 'inhibition at 10 µM', 69.8),
  ('O=C(Nc1ccccc1/C=C/c1n[nH]c2ccccc12)c1sccc1Cl', 'inhibition at 10 µM', 96.7),
  ('Cc1ccsc1C(=O)Nc1cc(CN2CCOCC2)ccc1/C=C/c1n[nH]c2ccccc12 [Compound 224, hydrochloride]', 'inhibition at 10 µM', 100),
  ('O=C(Nc1ccccc1/C=C/c1n[nH]c2ccccc12)c1ccc[nH]1', 'inhibition at 10 µM', 98.9),
  ('CCCS(=O)(=O)NCCOc1ccc(/C=C/c2n[nH]c3ccccc23)c(NC(=O)c2sccc2C)c1OC', 'inhibition at 10 µM', 99),
  ('Nc1cccc2c1C(=O)N(c1cc(C(=O)N3CCOCC3)ccc1/C=C/c1n[nH]c3ccccc13)C2=O', 'inhibition at 10 µM', 97.9),
  ('Nc1cccc2c1C(=O)N(c1cc3c(cc1/C=C/c1n[nH]c4ccccc14)OCO3)C2=O', 'inhibition at 10 µM', 99.5);

Ref: patent US7605272B2
